Read-out: CD38, CD38 (gene 952)
measurement.protocol: BSK_SAg_CD38: BioMAP Diversity Plus: SAg Assay for CD38 Biomarker Activity (AID 2283087)
experimental.parameters: primary human HUVEC with PBMC; actives raise or lower the signal
Active and inactive are the calls of the source. Rule for the calls: active = hit-call score of the fitted dose curve at least 0.9, where 1 is the maximum; inactive = score below 0.9.
Allowed answers: true (1) = active, false (0) = inactive

Known results for compounds:
compound	assigned.label
C=CCCCCCCCCC(=O)O	false (0)
O=C(O)c1cc(N=Nc2ccc(S(=O)(=O)Nc3ccccn3)cc2)ccc1O	false (0)
COC(=O)c1ccccc1O	false (0)
CC(C)=CCC/C(C)=C\CO	false (0)
CC(C)CCCCCCOC(=O)c1ccc(C(=O)OCCCCCCC(C)C)c(C(=O)OCCCCCCC(C)C)c1	false (0)

IN: What is the recorded call for this compound in the test? CCCCC(CC)COC(=O)c1ccc(C(=O)OCC(CC)CCCC)cc1 (centres undefined)
OUT: false (0)

IN: Dear colleague, could you share the recorded outcome for `Oc1ccc2c(c1)-c1ccccc1C2` when you have a moment?
OUT: false (0)

IN: Could you please tell me the result logged for `CCOCCOCCOCCO` in this assay?
OUT: false (0)

IN: Returns: the outcome recorded for `Cc1[nH]cnc1C[C@H]1CCc2c(C)c3ccccc3n2C1=O` in this assay.
OUT: true (1)

IN: What call does the record list for `O=P(OC(CCl)CCl)(OC(CCl)CCl)OC(CCl)CCl` ?
OUT: true (1)
